biological target: CDK9/Cyclin T1 (Homo sapiens); assay: CDK9 Enzymatic Activity Assay (Lance Kinase Activity Assay, FRET); type: biochemical; conditions: Table 5B, class symbols per IC50 [nM] ranges of b581; read-out: CDK9: Selectivity of CDK7 inhibition over CDK9 inhibition
Sequence (P50750 whole entry): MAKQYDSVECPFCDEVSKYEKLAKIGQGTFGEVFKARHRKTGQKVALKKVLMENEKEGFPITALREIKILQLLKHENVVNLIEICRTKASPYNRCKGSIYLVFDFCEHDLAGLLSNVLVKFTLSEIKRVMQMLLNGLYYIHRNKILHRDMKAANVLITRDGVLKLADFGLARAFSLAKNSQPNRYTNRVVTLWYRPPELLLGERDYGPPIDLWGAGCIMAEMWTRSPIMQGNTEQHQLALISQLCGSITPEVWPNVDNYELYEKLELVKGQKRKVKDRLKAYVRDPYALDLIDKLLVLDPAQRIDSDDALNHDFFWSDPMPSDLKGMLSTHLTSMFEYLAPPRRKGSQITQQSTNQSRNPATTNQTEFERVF
Sequence (O60563 whole entry partner): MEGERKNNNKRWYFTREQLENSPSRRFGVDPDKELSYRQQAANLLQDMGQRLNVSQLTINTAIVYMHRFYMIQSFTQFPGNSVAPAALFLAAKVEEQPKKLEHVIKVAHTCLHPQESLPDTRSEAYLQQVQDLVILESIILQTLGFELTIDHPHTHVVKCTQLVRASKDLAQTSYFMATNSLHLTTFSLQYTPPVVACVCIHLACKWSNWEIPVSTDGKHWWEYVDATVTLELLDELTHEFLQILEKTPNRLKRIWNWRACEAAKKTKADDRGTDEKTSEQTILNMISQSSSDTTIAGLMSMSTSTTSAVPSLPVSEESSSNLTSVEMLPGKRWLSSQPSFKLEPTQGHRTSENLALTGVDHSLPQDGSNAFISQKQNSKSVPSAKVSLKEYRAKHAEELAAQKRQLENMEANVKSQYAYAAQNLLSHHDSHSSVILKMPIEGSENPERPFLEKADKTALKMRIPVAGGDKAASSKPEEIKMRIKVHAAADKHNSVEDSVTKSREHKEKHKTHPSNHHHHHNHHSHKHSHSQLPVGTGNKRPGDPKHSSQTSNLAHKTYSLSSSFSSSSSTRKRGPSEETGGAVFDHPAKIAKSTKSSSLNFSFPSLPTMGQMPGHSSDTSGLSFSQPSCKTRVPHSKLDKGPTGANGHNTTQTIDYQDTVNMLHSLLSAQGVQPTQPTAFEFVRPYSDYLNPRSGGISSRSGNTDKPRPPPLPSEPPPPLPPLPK
measuredQuantity: IC50

- compound: "CC(C)c1cnn2c(NCc3ccccc3-n3cccn3)nc(CN3CC(N4CCC(F)(F)C4)C3)nc12 [(XXX-7)]"
  IC50: "> 2500 nM"

INPUT: Requested field: IC50. Item: CC(C)c1cnn2c(NCc3ccccc3[S+]([O-])C3CCCC3)nc(O[C@@H]3CCCNC3)nc12 (stereo partly shown) [(VII-153)]
OUTPUT: > 2500 nM

INPUT: // IC50 lookup, key: Cc1nccn1-c1ccccc1CNc1nc(O[C@@H]2CCNC2)nc2c(C(C)C)cnn12 [(VII-25)]
OUTPUT: > 2500 nM

INPUT: What value of measured IC50 is listed for CC(=O)Oc1ccccc1CNc1nc(O[C@@H]2CCCNC2)nc2c(C(C)C)cnn12 [(VII-145)] ?
OUTPUT: 500 to 2500 nM

INPUT: Look at this compound and give its reported IC50. CC(C)c1cnn2c(NCc3ccccc3-n3cccn3)nc(OCCN3CCNCC3)nc12 [(VII-124)]
OUTPUT: > 2500 nM

INPUT: Requested field: IC50. Item: CC(C)c1cnn2c(NCc3ccccc3-n3cccn3)nc(N3CCC4(CC3)CNC4)nc12 [(VIII-16)]
OUTPUT: > 2500 nM

INPUT: Look up IC50 for this compound: CC(C)c1cnn2c(NCc3ccccc3S(C)(=O)=O)nc(O[C@@H]3CCCNC3)nc12 [(VII-154)]
OUTPUT: > 2500 nM

INPUT: // lookup IC50 for CC(C)c1cnn2c(NCc3ccccc3C#N)nc(OC3CCN(C)CC3)nc12 [(VII-55)]
OUTPUT: > 2500 nM

INPUT: Look up IC50: CC(C)c1cnn2c(NCc3ccccc3N=S(C)(C)=O)nc(O[C@@H]3CCCNC3)nc12 [(VII-151)]
OUTPUT: > 2500 nM

INPUT: Item under review: CC(C)c1cnn2c(NCc3ccccc3-n3cccn3)nc(N3CCC(N(C)C)CC3)nc12 [(VIII-24)] . Reported IC50?
OUTPUT: 500 to 2500 nM

INPUT: Record request: IC50 value, item CC(C)c1cnn2c(NCc3ccccc3OS(C)(=O)=O)nc(O[C@@H]3CCCNC3)nc12 [(VII-147)]
OUTPUT: > 2500 nM

INPUT: Entry under review: CC(C)c1cnn2c(NCc3ccccc3-c3cccnc3)nc(O[C@@H]3CCCNC3)nc12 [(VII-46)] . Reported IC50?
OUTPUT: > 2500 nM

INPUT: Consider the compound shown here: CC(C)c1cnn2c(NCc3ccccc3-n3cccn3)nc(O[C@@H]3CCNC3)nc12 [(VII-02)] What is its recorded IC50?
OUTPUT: 500 to 2500 nM
